The measured values listed here are drawn from ChEMBL document CHEMBL1201862.

test system: OVCAR-5; assay: NCI tumour cell line growth inhibition, 48 h
Activity calls are given as the source filed them. No stated cut-off is given here; in the data, active = GI50 up to about 1.1 µM and inactive = higher. Where a SMILES comes first, the peptide text is derived from it. [ ]: non-standard residue; d: D form. The star is where a group is joined. Cbz = O=C(OCc1ccccc1)*; Aib = CC(C)(N)C(=O)O; OBn = c1ccc(CO*)cc1
REPORTED PROPERTY: GI50

COMPOUND	GI50
C[C@@H](NC1CCC[C@H]1O)c1ccccc1 (stereo partly drawn)	> 100 µM (inactive)
COC1=C(OC)C(=O)C(Sc2ccc3ccccc3c2)=CC1=O	15.6 µM (inactive)
C[C@@H]1CC[C@@]2(OC1)O[C@H]1[C@@H](O)[C@H]3[C@@H]4CC[C@H]5C[C@@H](O[C@@H]6O[C@H](CO)[C@H](O[C@@H]7O[C@H](CO)C(O)[C@H](O[C@@H]8OC[C@@H](O)[C@H](O)[C@H]8O)[C@H]7O[C@@H]7O[C@H](CO)[C@H](O)[C@H](O[C@@H]8O[C@H](CO)[C@@H](O)[C@H](O)[C@H]8O)[C@H]7O)[C@H](O)[C@H]6O)[C@H](O)C[C@]5(C)[C@H]4CC[C@]3(C)[C@H]1[C@@H]2C (stereo partly drawn) [DIGITONIN]	2.07 µM (inactive)

Req: // query GI50 value for entry CNC(C#N)c1ccc(OC)cc1 (stereo not drawn)
Resp: > 100 µM (inactive)

Req: Same question for C/C(=N\NC(=S)N1CCC(N2CCCCC2)CC1)c1ccccn1 please.
Resp: 4.11 µM (inactive)

Req: Same question for CCOC1NC(=O)Oc2ccccc21 (stereo not drawn) please.
Resp: > 100 µM (inactive)

Req: Same question for Clc1ccc(CCN2CCOCC2)c(Cl)c1 please.
Resp: > 100 µM (inactive)

Req: Same question for CC(NC(=O)C(C)(C)NC(=O)C(CC(=O)OCc1ccccc1)NC(=O)OCc1ccccc1)C(N)=O (stereo not drawn) (Cbz-Asp(OBn)-[Aib]-Ala-NH2; configuration not given here) please.
Resp: > 100 µM (inactive)

* * *

system: EKVX; assay: NCI tumour cell line growth inhibition, 48 h
Activity calls are given as the source filed them. Cut-off read from the data, not from the text of the source: active = GI50 up to about 1.1 µM and inactive = higher.
GI50 values for the compounds below.

Completed entries (count: 5):
COMPOUND	SUBJECT OF TEST	GI50
O=C(O)c1cc2cc(c1)/N=C/c1ccccc1OCc1cccc(n1)COc1ccccc1/C=N/2	EKVX	> 25 µM (inactive)
O=c1[nH]c(=O)n(C2CC(O)C(CO)O2)cc1OCCCc1ccccc1 (stereo not given)	EKVX	> 100 µM (inactive)
C=CCNC(=S)N/C=C1\C(=O)Oc2ccccc2C1=O	EKVX	> 100 µM (inactive)
COc1c(C)c(OC)c(C(=O)CC(C)C)c(OC)c1C	EKVX	> 100 µM (inactive)
O=C1OCCC1(Cc1ccc(Cl)cc1)Cc1ccc(Cl)cc1	EKVX	> 100 µM (inactive)

Req: // query GI50 value for entry N=c1oc2ccccc2cc1-c1nc2ccccc2c(=O)[nH]1
Resp: 35.6 µM (inactive)

Req: Same question for COC(=O)C1(NC(=O)C(CC(=O)OCc2ccccc2)NC(=O)OCc2ccccc2)CCCCCCC1 (stereo not given) please.
Resp: 45.4 µM (inactive)

* * *

tested on: EKVX; assay: NCI tumour cell line growth inhibition, 48 h
The source made the active and inactive calls. No stated cut-off is given here; in the data, active = GI50 up to about 1.1 µM and inactive = higher.
REPORTED PROPERTY: GI50

> print(dat)
                                   compound  reported.property          assay.value
1  CCOc1cc2c(cc1O)C(N)C[C@@H]1[C@@H]2CC[C@]2(C)[C@@H](O)CC[C@@H]12 (stereo not given in full)               GI50   80.9 µM (inactive)
2                             CP1(=O)CCCCC1               GI50  > 100 µM (inactive)
3  CC(C)(C)OC(=O)NC(CSCc1ccc(C(=O)c2ccccc2)cc1)C(=O)O (stereo not given)               GI50  > 100 µM (inactive)
4     Cc1cc2c(=O)c3ccccc3[nH]c2c(C(=O)O)c1C               GI50   66.5 µM (inactive)

Consider now this further compound.
Req: Value wanted: GI50 (EKVX) of entry C[Si](C)(c1ccccc1)[C@H]1CCCC=C1CCNC1c2ccccc2CCc2ccccc21
Resp: 29.4 µM (inactive)
